All values here come from patent US20110190235A1.

Would you kindly list Cmax for each of these compounds?
Experiment: Pharmacokinetic studies in mice (plasma, brain)
Type: in vivo
Details: male, CD-1, mouse; plasma, oral, mice, normalized to 25 mg/kg (nominal 25 mg/kg)
Field format: number, assumed ng/mL, no unit text.

Can you look up the measured Cmax of O=C(Nc1ccc2c(c1)B(O)OC2)c1ccc(F)cc1C(F)(F)F for me?
10000

Now the same for CC1(C)OB(O)c2cc(NC(=O)c3ccc(F)cc3C(F)(F)F)ccc21
9400

###

Experiment: Pharmacokinetic studies in mice (plasma, brain)
Type: in vivo
Details: male, CD-1, mouse, 8 mg/kg; brain, oral, mice, normalized to 25 mg/kg (Table 3a)
readoutName: Cmax
Kindly report the value followed by its unit.

Can you look up the measured Cmax of CC1(C)OB(O)c2cc(NC(=O)c3ccc(F)cc3Cl)ccc21 for me?
3250 ng/mL

Now the same for O=C(Nc1ccc2c(c1)B(O)OC2)c1ccc(F)cc1Cl
2440 ng/mL
